Record: pIC50 reported on human IL-17RA and IL-17A proteins (Homo sapiens).
Here pIC50 is given on a logarithmic scale as minus log10 of the concentration in mol/L.

CC1(C)COCCN1C[C@H](c1cnc(NC(=O)[C@@H](NC(=O)C2(F)CC2)[C@H]2CC[C@H](C)CC2)s1)N1CC(F)(F)CNC1=O :: 8.30

Test item [2H]C([2H])([2H])O[C@H]1CCN(C[C@H](c2cnc(NC(=O)[C@@H](NC(=O)C3(F)CC3)[C@H]3CC[C@H](C)CC3)s2)N2CC(F)(F)CNC2=O)C[C@H]1F ; human IL-17RA and IL-17A proteins (Homo sapiens); reported pIC50 was 8.40

Test item C[C@@H]1CN(C[C@H](c2cnc(NC(=O)[C@@H](NC(=O)C(F)(F)C3CC3)[C@H]3CC[C@H](C)CC3)s2)N2CC(F)(F)CNC2=O)C[C@@H](C)O1 ; human IL-17RA and IL-17A proteins (Homo sapiens); reported pIC50 was 8.48

Test item C[C@H]1COCCN1C[C@H](c1cnc(NC(=O)[C@@H](NC(=O)C2(F)CC2)[C@H]2CC[C@H](C)CC2)s1)N1CC(F)(F)CNC1=O ; human IL-17RA and IL-17A proteins (Homo sapiens); reported pIC50 was 8.15

Test item CC1(C)CN(C[C@H](c2cnc(NC(=O)[C@@H](NC(=O)C3(F)CC3)[C@H]3CC[C@H](C)CC3)s2)N2CC(F)(F)CNC2=O)CCO1 ; human IL-17RA and IL-17A proteins (Homo sapiens); reported pIC50 was 8.30

----------
Record: IC50 reported on human IL-17RA and IL-17A proteins (Homo sapiens, UniProt Q16552).
Sequence (Q16552 24-155): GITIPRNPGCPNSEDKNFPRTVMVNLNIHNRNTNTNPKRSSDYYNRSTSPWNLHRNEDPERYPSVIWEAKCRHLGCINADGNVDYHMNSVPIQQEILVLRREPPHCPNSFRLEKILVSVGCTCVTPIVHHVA
Field: numeric (nM). Do not append units.

C[C@H]1CC[C@H]([C@H](NC(=O)C(F)(F)C2CC2)C(=O)Nc2ncc([C@@H](CN3CCO[C@H](CF)C3)N3CC(F)(F)CNC3=O)s2)CC1 [Example 700] :: 3.4
COC1CCN(C[C@H](c2cnc(NC(=O)[C@@H](NC(=O)C3(F)CC3)[C@H]3CC[C@H](C)CC3)s2)N2CC(F)(F)CNC2=O)CC1 [Example 777] :: 8
C[C@H]1CC[C@H]([C@H](NC(=O)C2(F)CC2)C(=O)Nc2ncc([C@@H](CN3CCC(C(F)F)CC3)N3CC(F)(F)CNC3=O)s2)CC1 [Example 770] :: 7

Test item C[C@@H]1CN(C[C@H](c2cnc(NC(=O)[C@@H](NC(=O)C3(F)CC3)[C@H]3CC[C@H](C)CC3)s2)N2CC(F)(F)CNC2=O)[C@@H](C)CO1 [Example 731] ; human IL-17RA and IL-17A proteins (Homo sapiens, UniProt Q16552); reported IC50 was 6.6

Test item C[C@H]1CC(F)(F)CCN1C[C@H](c1cnc(NC(=O)[C@@H](NC(=O)C2(F)CC2)[C@H]2CC[C@H](C)CC2)s1)N1CC(F)(F)CNC1=O [Example 764] ; human IL-17RA and IL-17A proteins (Homo sapiens, UniProt Q16552); reported IC50 was 7

Test item C[C@H]1CC[C@H]([C@H](NC(=O)C2(F)CC2)C(=O)Nc2ncc([C@@H](CN3CCOC4(CC4)C3)N3CC(F)(F)CNC3=O)s2)CC1 [Example 721] ; human IL-17RA and IL-17A proteins (Homo sapiens, UniProt Q16552); reported IC50 was 4

Test item COC[C@H](c1cnc(NC(=O)[C@@H](NC(=O)c2nonc2C)[C@H]2CC[C@H](C)CC2)s1)n1cc(Cl)ccc1=O [Example 569] ; human IL-17RA and IL-17A proteins (Homo sapiens, UniProt Q16552); reported IC50 was 5

Test item C[C@H]1CC[C@H]([C@H](NC(=O)OC2CC2)C(=O)Nc2ncc([C@@H](CC3CC3)N3CC(F)(F)CNC3=O)s2)CC1 [Example 524] ; human IL-17RA and IL-17A proteins (Homo sapiens, UniProt Q16552); reported IC50 was 3.6

Test item C[C@H]1CN(C[C@H](c2cnc(NC(=O)[C@@H](NC(=O)C3(F)CC3)[C@H]3CC[C@H](C)CC3)s2)N2CC(F)(F)CNC2=O)C[C@H](C)O1 [Example 730] ; human IL-17RA and IL-17A proteins (Homo sapiens, UniProt Q16552); reported IC50 was 6.7

Test item [2H]C([2H])([2H])O[C@@H]1CCN(C[C@H](c2cnc(NC(=O)[C@@H](NC(=O)C3(F)CC3)[C@H]3CC[C@H](C)CC3)s2)N2CC(F)(F)CNC2=O)C[C@@H]1F [Example 781] ; human IL-17RA and IL-17A proteins (Homo sapiens, UniProt Q16552); reported IC50 was 5

Test item C[C@H]1CC[C@H]([C@H](NC(=O)C2(F)CC2)C(=O)Nc2ncc([C@@H](CN3CCC(F)CC3)N3CC(F)(F)CNC3=O)s2)CC1 [Example 760] ; human IL-17RA and IL-17A proteins (Homo sapiens, UniProt Q16552); reported IC50 was 7

Test item CCc1nonc1C(=O)NC(C(=O)Nc1ncc(C(COC)N2CC(C(F)(F)F)NC2=O)s1)C1CCC(C)CC1 (stereo not drawn) [Example 521] ; human IL-17RA and IL-17A proteins (Homo sapiens, UniProt Q16552); reported IC50 was 1.3
